B1: CPEB3 Ribozyme (parent)
chain: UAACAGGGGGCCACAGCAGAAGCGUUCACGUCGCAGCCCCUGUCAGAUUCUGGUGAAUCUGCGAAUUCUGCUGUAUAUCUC

- Variants of: B1
- procedure-summary: self-cleavage, relative activity (ratio to wild type); higher = more cleavage; in vitro, sequencing
Respond with YES for self-cleavage values of 0.3 and above, NO for values below.

Challenge: I'd appreciate it if you could say whether UAACAGGGGGCCACAGCAGAAGGGUUCACGUCGCAGCCCCUGUCAGAUUCUGGUGAAUCUGCGAAUUCUGCUGUAUAUCUC [C23G] has self-cleavage at least equal to 0.3.
Response given: NO

Challenge: Can you check UAACAGGGGGCCACUGCAGAAGCGUUCACGUCGCAGCCCCUGUCAGAUUCUGGCGAAUCUGCGAAUUCUGCUGUAUAUCUC [A15U U54C] next?
Response given: YES

Challenge: Note, next up: UAACAGGUGGCCACAGCAGAAGCGUUCACGUCUCAGCCCCUGUCAGAUUCUGGUGAAUCUGCGAAUUCUGCUGUAUAUCUC [G8U G33U]
Response given: NO

Challenge: What about UAACAGGGGGCCACAGCAGAAGCGUUCACGUCGCAGCCCCUGUCAGAUUCUGGUGAAUCUGCGAUUUCUGCUGUAUAUCUA [A65U C81A] ?
Response given: YES

Challenge: Now try UAACAGGGGGCCACAGCAGAAGCGUUCACGUCGCAGCCCAUGUCAGGUUCUGGUGAAUCUGCGAAUUCUGCUGUAUAUCUC [C40A A47G] .
Response given: NO

Challenge: Another variant: UAACAGGGGGCCACAGCAGAAGCGGUCACGUCGCGGCCCCUGUCAGAUUCUGGUGAAUCUGCGAAUUCUGCUGUAUAUCUC [U25G A35G]
Response given: YES

Challenge: Same lookup for UAACAGGGGGCCACAGCAGAAGCGUUCACGUCGCAGCCCCUGUCAGAUUCCGGUGAAUCUGCGAAUUCUGCGGUAUAUCUC [U51C U72G] , please.
Response given: YES

Challenge: Check UAACAGGGGGCCACAGCAGAAGCGUUCACGUCGCAGCACCUGUCAGAUUCUGGUGAAUCUGCGAAUUCUGCUGUAUAUCAC [C38A U80A] too.
Response given: NO

Challenge: Check UAACAGGGGGCCACAGCAGAAGCGUUCACGUCGCAGCCCCUGUCAGAUUCUGGUGAAUCUGCGAAUUCUGCUGCAUAUCUU [U74C C81U] too.
Response given: YES

Challenge: Likewise for UAACAGGGGCCCACAGCAGAAGCGUUCACGUCGCAGCCCCUGUCGGAUUCUGGUGAAUCUGCGAAUUCUGCUGUAUAUCUC [G10C A45G] ?
Response given: NO

Challenge: Here is the next variant: UAACAGGGGGCCACAGCAGAAGCGCUCACGUCGCAGCCCCUGUCAGAUUCUGGUGAAUCUGCGAAUUAUGCUGUAUAUCUC [U25C C68A]
Response given: NO

Challenge: Moving on to the next variant: UAACAGGGGGCCACAGCAGAAGCGCUCACGUCGCAGCCCCUGUCAGAUUCUGGUGAAUCUGCGAAUUCUGCUGUGUAUCUC [U25C A75G]
Response given: NO

Challenge: What would you report for UAACAGGGGGCCACAGCAGCAGCGUUCACGUCGCAGCCCCUGUCAGAUUCUGGUGAAUCAGCGAAUUCUGCUGUAUAUCUC [A20C U60A] ?
Response given: YES

Challenge: What do we get for UAACAGGGGGCCACAGCAGAAGCGUUCACGUCGCAGCCCCUGUCAGAUCCUGGUGAAUCUCCGAAUUCUGCUGUAUAUCUC [U49C G61C] ?
Response given: YES

Challenge: Consider next the variant UAACAGGGGGCCACAGCAGAAGCGUUCACGUCGCAGCCCCUGUCAGAUUCUGGUGAAUCUGCGAAUUAUGCAGUAUAUCUC [C68A U72A] in the same way.
Response given: YES

Challenge: Same lookup for UAACAGGGGGCCACAGCAGAAGCGUUCACGUCGCAGCCCCUGUCAGAUUCUGGUGAAUCCGCGAAUUCUGCUAUAUAUCUC [U60C G73A] , please.
Response given: YES

Challenge: Next variant up: CAACAGGGGGCCACAGCAGAAGCGUUCACGUCGCAGCCCCUGUCAGAUUCUGGUGAAUCUGCGAGUUCUGCUGUAUAUCUC [U1C A65G]
Response given: YES

Challenge: Would you mind doing UAACAGGGGGCCACAGCAGUAGCGUUCACGUCGCAGCCCCUGUCAGAUUCUGGUGAAUCUGCGAAGUCUGCUGUAUAUCUC [A20U U66G] as well?
Response given: NO

Challenge: Cool, now UAACAGGAGGCCACAGCAGAAGCGUUCACGACGCAGCCCCUGUCAGAUUCUGGUGAAUCUGCGAAUUCUGCUGUAUAUCUC [G8A U31A]
Response given: NO

Challenge: # repeat for UAACAGGGGGCAACCGCAGAAGCGUUCACGUCGCAGCCCCUGUCAGAUUCUGGUGAAUCUGCGAAUUCUGCUGUAUAUCUC [C12A A15C]
Response given: YES

Challenge: Now the same for UAUUAGGGGGCCACAGCAGAAGCGUUCACGUCGCAGCCCCUGUCAGAUUCUGGUGAAUCUGCGAAUUCUGCUGUAUAUCUC [A3U C4U]
Response given: YES

Challenge: Same question for UAGCAGGGGGCCACAGCAGAAGCGUUCACGUCGCAGCCCCUGUCAGAUUCUGGUGAAUCUGCUAAUUCUGCUGUAUAUCUC [A3G G63U] please.
Response given: YES

Challenge: Try the variant UAGCAGGGGGCCACAGCAGAAGCGUUCACGUCGCAGCCCCUGUCAGUUUCUGGUGAAUCUGCGAAUUCUGCUGUAUAUCUC [A3G A47U]
Response given: YES

Challenge: Can you check UGACAGGGGGCCUCAGCAGAAGCGUUCACGUCGCAGCCCCUGUCAGAUUCUGGUGAAUCUGCGAAUUCUGCUGUAUAUCUC [A2G A13U] next?
Response given: YES

Challenge: Moving on to UAACAGCGGGCCACAGCAGAAGCGUUCACGUCGCAGCCCCUGUCAGAUUCUGGUGAAUCUGCGAGUUCUGCUGUAUAUCUC [G7C A65G]
Response given: NO

Challenge: Also need UAACAGGGGGCCACAGCAGAAGCGUUCACGUCGCAGCCCCUGUCAGAUUCUGGCGAAUCUGCGGAUUCUGCUGUAUAUCUC [U54C A64G] , thanks.
Response given: YES

Challenge: Same question, UAACAGGGGGCCACAGCAGAAGCGUUCACGUCGCAGCCCCUGCCAGAUUCUGGUGAAUCUGCGAAUUCUGCUAUAUAUCUC [U43C G73A] this time
Response given: YES

Challenge: Repeat for the following variant: UAACAGGGGGCCACAGCAGAAGCGUUCACGUCGCAGCCCCUGUCAGAUUCUGGCGAAUCUGCGAAUUCUGCAGUAUAUCUC [U54C U72A]
Response given: YES

Challenge: Proceed to UUACAGGGCGCCACAGCAGAAGCGUUCACGUCGCAGCCCCUGUCAGAUUCUGGUGAAUCUGCGAAUUCUGCUGUAUAUCUC [A2U G9C]
Response given: YES

Challenge: Proceed to UAACAGGGGGCCUCAGCAGAAGCGUUCACUUCGCAGCCCCUGUCAGAUUCUGGUGAAUCUGCGAAUUCUGCUGUAUAUCUC [A13U G30U]
Response given: NO

Challenge: What do you get for UAACAGGGGGCCACCGCAGAAGCGUUCACGUCGCAGCCCCUGGCAGAUUCUGGUGAAUCUGCGAAUUCUGCUGUAUAUCUC [A15C U43G] ?
Response given: NO

Challenge: Here is the next variant: UAACAGGGGGCCACAGCAGAAGCGUUCACGACGCAGCCCCUGUCGGAUUCUGGUGAAUCUGCGAAUUCUGCUGUAUAUCUC [U31A A45G]
Response given: YES

Challenge: Further, for UAAUAGGGGGCCACAGCAGAAGCGUUCACGUCGCAGCCCCUGUCAGAUUCAGGUGAAUCUGCGAAUUCUGCUGUAUAUCUC [C4U U51A] ?
Response given: YES

Challenge: Entry UAACAGACGGCCACAGCAGAAGCGUUCACGUCGCAGCCCCUGUCAGAUUCUGGUGAAUCUGCGAAUUCUGCUGUAUAUCUC [G7A G8C] please
Response given: NO

Challenge: AAACAGGGGGCCACAGCAGAAGCGUUCACGUCGCAGCCCCUGUCAGAUUCUGGUGAAUCUGCGACUUCUGCUGUAUAUCUC [U1A A65C] , same question.
Response given: NO

Challenge: // next record UAACAGGGGGCCACAGUAGAAGCGUUCACGUCGCAGCCCCUGUCAGAUUCUGGUGAAUCUGCGAAUUCUGCUGCAUAUCUC [C17U U74C]
Response given: YES

Challenge: Then this variant: UAACAGGGGGCCACAGCAGAAGCGUUCACGUCGCAGCCCCUGUCAGAUUCUGGUGAAUCUGCGAAUCCUGCUCUAUAUCUC [U67C G73C]
Response given: YES

Challenge: Next variant up: UAACAGGGGGCCACAGCAGAAGCGUUCACGUCGCAGCCCCUGUCAGAUUCCGGUGAAUCUGCGAAUUCUGCUGUAUAUCUA [U51C C81A]
Response given: YES

Challenge: Entry to check: UAACAGGUGGCCACAGCAGAAGCGUUCACGUCGCAGCCCCUGUCAGAUUCUGGUGAAUCUGCGAGUUCUGCUGUAUAUCUC [G8U A65G]
Response given: YES

Challenge: Entry to check: UAACAGGGGGCAACAGCAGAAGCGUUCACGUCGCAGCCCCUGUCAGAUUCUGGUGAAUCUGCGAAUUCCGCUGUAUAUCUC [C12A U69C]
Response given: YES

Challenge: One more variant: UAACAGGGGGCCACAGCAGAAGCGUUCACGUCGCAGCCCCUGGCAGAUUCUGGUGAAUCUGCGAAUUCUACUGUAUAUCUC [U43G G70A]
Response given: YES

Challenge: And the next one, UACCAGGGGGCCACAGCAGAAGCGUUCACGUCGCAGCCCCUGUCAAAUUCUGGUGAAUCUGCGAAUUCUGCUGUAUAUCUC [A3C G46A] ?
Response given: NO

Challenge: Try UAACAGGGGGCCACAGCAGUAGCGUUCACGUCGCAGCCCCUGUCAGAUUCUGGUGAAUCUGCGAAUUCUGCUGUAUAUGUC [A20U C79G] next.
Response given: YES
